measured-target: T1, human GIP receptor (GIPR) (human), P48546
T1 chain: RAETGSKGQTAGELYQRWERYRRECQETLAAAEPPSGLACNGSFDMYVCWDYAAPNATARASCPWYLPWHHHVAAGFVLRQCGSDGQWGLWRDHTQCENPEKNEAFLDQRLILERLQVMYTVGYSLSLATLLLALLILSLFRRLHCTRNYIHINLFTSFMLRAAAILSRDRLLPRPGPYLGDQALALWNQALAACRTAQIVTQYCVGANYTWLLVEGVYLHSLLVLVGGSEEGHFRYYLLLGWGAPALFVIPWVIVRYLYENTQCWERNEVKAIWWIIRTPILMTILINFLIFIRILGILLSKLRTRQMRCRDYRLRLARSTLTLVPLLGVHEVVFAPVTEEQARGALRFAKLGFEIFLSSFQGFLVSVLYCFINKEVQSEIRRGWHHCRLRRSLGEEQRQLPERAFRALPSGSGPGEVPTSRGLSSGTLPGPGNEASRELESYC
assay: competition
condition-set: modification not given
property: pIC50
Scale: negative log10 of molar concentration, which is what pIC50 denotes.

Identify pIC50 associated with the binder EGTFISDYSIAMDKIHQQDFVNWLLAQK [GIP(3-30)NH2]
8.36
